# System: TK-10 renal
# assay: NCI tumour cell line growth inhibition, 48 h
The reader will find reported TGI values listed item by item below.
The reply should contain only the number, in µM.

Solved entries:
1. NC1=NS(=O)(=O)Nc2nc(-c3ccc([N+](=O)[O-])o3)[nH]c21 :: 33
2. O=C(Nc1ccc(-n2cc(-c3ccncc3)c(-c3ccc(Cl)c(O)c3)n2)cc1)Nc1ccc(Cl)c(C(F)(F)F)c1 :: 15.1

Ask: Dear colleague, please send me the reported TGI for CCCCC1(CN2CCOCC2)S/C(=N/c2nc(CC(=O)OCC)cs2)NC1=O (stereo not given) when you can.
Result: 99.1

Ask: Dear colleague, please send me the reported TGI for `O=C(CSC(c1ccccc1)c1ccccc1)N/N=C/c1ccc(Cl)cc1Cl` when you can.
Result: 72

* * *

# Tested on: ACHN renal
# assay: NCI tumour cell line growth inhibition, 48 h
The reader will find reported TGI values listed item by item below.

1) O=[N+]([O-])c1ccc2c(c1)C(c1ccccc1Cl)=Nc1cn[nH]c1N2 :: > 25 µM

Please turn your attention to the following entry.
Ask: Give TGI; test system ACHN renal; compound CC(=O)C1=C(C)NC2C=CC=CN12 (stereo not given)
Result: > 100 µM

* * *

# Tested on: MDA-N
# assay: NCI tumour cell line growth inhibition, 48 h
measure_name: TGI (µM)
The reply should contain only the number, in µM.

Solved entries:
1) O=C1c2ccccc2-c2nc(-c3cccc([N+](=O)[O-])c3)nnc21 :: 5.49
2) O=c1[nH]/c(=C/c2ccc(OCc3ccccc3)cn2)c(=O)[nH]/c1=C/c1ccc(O)cc1 :: 0.591
3) COc1ccc2c(c1)[C@@]13CCCC[C@H]1[C@@H](C2)N(C)CC3=O :: 28.9

Please turn your attention to the following entry.
Ask: Dear colleague, please send me the reported TGI for `Cc1ccc2nc(Cl)c(/C=N/N3C(=O)/C(=C/c4ccccc4S)N=C3c3ccccc3)cc2c1` when you can.
Result: 40.5

* * *

# System: HCT-15 colon
# assay: NCI tumour cell line growth inhibition, 48 h; in the data active = GI50 below about 0.43 µM; inactive = the rest
Select the correct class. Options are Yes = active, No = inactive and nothing else.

Recorded results for 2 compounds are shown here.
1) COc1cc2c3c(n(CCCN(C)C)c(=O)c2cc1OC)-c1ccccc1C3=O :: No
2) Cc1cc(I)cc(CN(C)CCCN2CCOCC2)c1O :: No

Ask: // return assay outcome for `C[C@]12CCc3nc(Nc4ccccc4)sc3C1=CC[C@@H]1[C@@H]2CC[C@]2(C)/C(=N/NC(N)=S)CC[C@@H]12`
Result: No

Ask: // return assay outcome for `COc1ccc(-c2ccc(/C=N/n3c(C)n[nH]c3=S)o2)c([N+](=O)[O-])c1`
Result: No

Ask: // return assay outcome for NC(CS/C(Cl)=C/Cl)C(=O)O (centres undefined)
Result: No

Ask: // return assay outcome for `N.N.N.N.[Cl-].[Co+3].[N-]=[N+]=[N-].[N-]=[N+]=[N-]`
Result: No

Ask: // return assay outcome for Cc1cc(C2CC(O)C(CO)O2)cc2c(=O)[nH]c(N)nc12 (centres undefined)
Result: No

Ask: // return assay outcome for `CC(=O)O[C@H](C[C@H](C(C)C)N(C)C(=O)[C@@H](NC(=O)[C@H]1CCCCN1C)C(C)C)c1nc(C(=O)N[C@@H](Cc2ccccc2)C[C@H](C)C(=O)O)c(CCOCc2ccccc2)s1`
Result: Yes

Ask: // return assay outcome for `Cc1cc2c(cc1Cl)SC(=Nc1ccc(Cl)cc1)N(S(=O)(=O)c1ccccc1)S2(=O)=O`
Result: No

* * *

# Tested on: M14 melanoma
# assay: NCI tumour cell line growth inhibition, 48 h
The reader will find reported TGI values listed item by item below.

1) Cc1ccn2c(=O)cc(-c3ccccc3)nc2c1 :: > 100 µM
2) NCCSc1nc2ccccc2c(=O)n1-c1ccccc1 :: > 100 µM
3) Cc1cn(C2CC(n3cc(Cn4cc(Br)c(=O)[nH]c4=O)nn3)C(CO)O2)c(=O)[nH]c1=O (centres undefined) :: > 100 µM
4) COc1cc(C2=C(c3cn(C)c4ccccc34)COC2=O)cc(OC)c1OC :: 1.17 µM
5) Cc1cc(I)cc(CN(C)CCCN2CCOCC2)c1O :: 32.3 µM

Ask: Dear colleague, please send me the reported TGI for `O=C(O)c1ccc(S(=O)(=O)c2ccccc2[N+](=O)[O-])cc1` when you can.
Result: > 10 µM

Ask: Dear colleague, please send me the reported TGI for `COc1cc2cccc(N=Cc3cccc(OC)c3OC(C)C)c2cc1OC` when you can.
Result: 35.9 µM

Ask: Dear colleague, please send me the reported TGI for `COc1ccc(O)cc1` when you can.
Result: > 100 µM

Ask: Dear colleague, please send me the reported TGI for `O=C(/C=C/c1cc(CN2CCOCC2)c(O)c2ncccc12)c1cc(CN2CCOCC2)c(O)c2ncccc12` when you can.
Result: > 64.2 µM

Ask: Dear colleague, please send me the reported TGI for `NC(=O)NNC(=O)c1nc[nH]c1[N+](=O)[O-]` when you can.
Result: > 100 µM

Ask: Dear colleague, please send me the reported TGI for CCOC(=O)c1c[nH]c2oc(/C=N/N3CC(CN4CCOCC4)OC3=O)cc2c1=O (centres undefined) when you can.
Result: > 100 µM

Ask: Dear colleague, please send me the reported TGI for `O=c1oc2ccccc2c(Nc2ccc3c(c2)Oc2ccccc2O3)c1[N+](=O)[O-]` when you can.
Result: > 100 µM

Ask: Dear colleague, please send me the reported TGI for `COc1ccc2c(c1)[C@@]13CCCC[C@H]1[C@@H](C2)N(C)CC3=O` when you can.
Result: 31 µM

Ask: Dear colleague, please send me the reported TGI for CC(C)(C=O)CC(C#N)/C(=N\NC(N)=O)C(=O)Nc1ccccc1C(N)=O (centres undefined) when you can.
Result: > 100 µM

Ask: Dear colleague, please send me the reported TGI for COc1cc(C2SCC(=O)N2c2ccc(-c3ccc(-n4c(-c5ccccc5)nc5ccccc5c4=O)cc3)cc2)cc(OC)c1OC (centres undefined) when you can.
Result: > 100 µM

* * *

The reader will find reported TGI values listed item by item below.
# Tested on: HCT-116 colon
# assay: NCI tumour cell line growth inhibition, 48 h

Solved entries:
1. Nn1c(CCCCCCCCc2nnc(COc3ccc(Cl)cc3)n2N)nnc1COc1ccc(Cl)cc1 :: > 100 µM
2. OCC1OC(n2cnc3c(Cl)nc(Nc4ccccc4)nc32)CC1O (stereo not drawn) :: > 100 µM
3. N=C(N)SCc1cccc(-c2nc3ccccc3c(=O)o2)c1 :: > 100 µM

Ask: Give TGI; test system HCT-116 colon; compound CCC1(C)N=C(c2cnccn2)NN1c1ccc(Cl)cc1 (stereo not drawn)
Result: > 100 µM

Ask: Give TGI; test system HCT-116 colon; compound O=C1CC2C(=O)N(Cc3ccccc3)C1C=C2S(=O)(=O)c1ccccc1 (stereo not drawn)
Result: > 100 µM

Ask: Give TGI; test system HCT-116 colon; compound CC(=O)C1=C(C)NC2C=CC=CN12 (stereo not drawn)
Result: > 100 µM

Ask: Give TGI; test system HCT-116 colon; compound `Oc1cc(C2OCCCO2)cc(O)c1O`
Result: > 100 µM

Ask: Give TGI; test system HCT-116 colon; compound `Cc1cc(S(=O)(=O)N/N=C(\Sc2cc(Cl)c(C)cc2S(N)(=O)=O)c2ccc(Cl)cc2)c(Cl)cc1Cl`
Result: > 100 µM

* * *

The reader will find reported GI50 values listed item by item below.
# Tested on: 786-0 renal
# assay: NCI tumour cell line growth inhibition, 48 h

Solved entries:
1) CCOC(=O)CNC(=O)c1ccccc1Nc1ccnc(C(F)(F)F)c1 :: 52600 nM
2) Oc1cn(-c2ccc(Cl)cc2)nc1-c1n[nH]c(=S)n1C1CCCCC1 :: 1820 nM
3) O=C(CSC(c1ccccc1)c1ccccc1)N/N=C/c1ccc(Cl)cc1Cl :: 40100 nM
4) Cc1cc(N/N=C/c2nc(-c3ccc(Br)cc3)oc2C)c2cc(Br)ccc2n1 :: 1700 nM
5) Cc1cc[c-]cc1.Fc1c[c-]c(-c2ccccn2)c(F)c1.[Pt+2].c1ccc(P(C[PH+](c2ccccc2)c2ccccc2)c2ccccc2)cc1 :: 2920 nM

Ask: Dear colleague, please send me the reported GI50 for `O=C(/C=C/c1cc(CN2CCOCC2)c(O)c2ncccc12)c1cc(CN2CCOCC2)c(O)c2ncccc12` when you can.
Result: 80.2 nM

Ask: Dear colleague, please send me the reported GI50 for `C=C1C(=O)O[C@H]2[C@H]1CC/C(COC(=O)c1ccc(Cl)nc1)=C\CC[C@@]1(C)O[C@@H]21` when you can.
Result: 1750 nM
